Test system: W2
Assay: qHTS profiling for inhibitors of Plasmodium falciparum proliferation (AID 504749); note: nearly all actives have a fitted effect of over 60% in size; note: potency is the fitted concentration of half-maximal effect
Settings: P. falciparum in erythrocytes, SYBR Green DNA, 72 h; series mostly up to 28.7 µM
Inconclusive results are not listed. Calls of active or inactive are those of the source. Calls come from the whole dose curve; as a rule, active = well fitted inhibition curve with a large enough effect; inconclusive = small, poorly fitted or top-dose-only effect; inactive = flat fitted curve, though single readings scatter.
outcome measure: Potency

1) c1ccc(CNCCNCc2ccccc2)cc1: 4.26 µM (active)
2) NC(CO)(CO)CO: inactive
3) CCCn1c(=O)[nH]c(=O)c2[nH]cnc21: inactive
4) CC1=C(C(=O)OC(C)C)C(c2cccc([N+](=O)[O-])c2)C(C(=O)OC2CN(C(c3ccccc3)c3ccccc3)C2)=C(N)N1 (configuration not stated): 5.36 µM (active)
5) Oc1c(Cl)cc(Cl)cc1Sc1cc(Cl)cc(Cl)c1O: inactive
6) O=C1OCCN1/N=C/c1ccc([N+](=O)[O-])o1: 15.1 µM (active)
7) Nc1cc(Cl)c(NC2=NCCN2)c(Cl)c1: inactive
8) CCN(CC)C(=O)/C(C#N)=C/c1cc(O)c(O)c([N+](=O)[O-])c1: inactive

Would you be so kind as to report Potency for each listed record?
1. CN(C)C(=S)SC(=S)N(C)C
2. CC(C)COC(=O)OCN1C(=O)CN(CCN2CC(=O)N(COC(=O)OCC(C)C)C(=O)C2)CC1=O
3. CCCCCCc1ccc(O)cc1O
4. COc1cc(NS(C)(=O)=O)ccc1Nc1c2ccccc2nc2ccccc12

["9.53 µM (active)", "inactive", "inactive", "2.13 µM (active)"]

----------
Assay: qHTS of pediatric cancer cell lines to identify multiple opportunities for drug repurposing: Primary screen for Saos-2 cells (AID 1347097); note: % is set by controls: 0 for no effect and ±100 for the full control effect; nearly all actives have a fitted effect of over 40% in size
Conditions: Saos-2 viability, CellTiter-Glo ATP luminescence, 48 h; series mostly up to 46 µM
Inconclusive results are not listed. Activity calls are given as the source filed them. Calls come from the whole dose curve; as a rule, active = well fitted cell-killing curve with a large enough effect; inconclusive = small, poorly fitted or top-dose-only effect; inactive = no such curve, though single readings can be large or run the other way.
Please answer using one outcome listed in active, inactive

How was COc1cc(N)c(Cl)cc1C(=O)NC1CCN(CCCOc2ccc(F)cc2)CC1OC (centres undefined) classified in this test?
inactive

How was COc1cc(C(=S)N2CCOCC2)cc(OC)c1OC classified in this test?
inactive

----------
Target: Nuclear receptor subfamily 1 group I member 2 (Rattus norvegicus) (UniProt Q9R1A7)
Sequence (Q9R1A7 whole entry, looked up): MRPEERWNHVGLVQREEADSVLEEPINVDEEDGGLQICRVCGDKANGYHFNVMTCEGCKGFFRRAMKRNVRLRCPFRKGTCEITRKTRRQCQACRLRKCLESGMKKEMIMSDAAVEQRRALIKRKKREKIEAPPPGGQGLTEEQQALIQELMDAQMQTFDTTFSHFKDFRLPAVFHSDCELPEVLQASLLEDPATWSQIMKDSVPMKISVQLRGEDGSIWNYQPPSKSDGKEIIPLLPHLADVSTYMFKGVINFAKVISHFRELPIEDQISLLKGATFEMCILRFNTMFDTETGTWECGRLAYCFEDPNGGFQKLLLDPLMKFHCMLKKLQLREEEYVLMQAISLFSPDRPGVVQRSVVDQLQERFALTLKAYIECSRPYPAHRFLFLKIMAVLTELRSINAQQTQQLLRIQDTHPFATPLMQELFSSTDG
Test: qHTS assay for small molecule activators of the rat pregnane X receptor (rPXR) signaling pathway (AID 651751); note: 0% is about no effect
Settings: rPXR reporter cells, luciferase (One-Glo), 24 h
Calls of active or inactive are those of the source. No rule for the calls is given here.
Please provide measured max response for the entries that follow.

// solved cases for max response follow
1) CC(=O)Oc1ccc(C(c2ccc(OC(C)=O)cc2)c2ccccn2)cc1: -3.28% (inactive)
2) CN(C)/N=N/c1nc[nH]c1C(N)=O: -2.27% (inactive)
3) CC(O)(P(=O)(O)O)P(=O)(O)O: -3.46% (inactive)

max response for Nc1ccc(C(=O)O)cc1 is -6.06% (inactive)

----------
Experiment: qHTS of pediatric cancer cell lines to identify multiple opportunities for drug repurposing: Primary screen for TC32 cells (AID 1347089); note: nearly all actives have a fitted effect of over 60% in size; note: potency is the fitted concentration of half-maximal effect
Details: TC32 Ewing sarcoma viability, CellTiter-Glo luminescence, 48 h; series mostly up to 45.8 µM
Results filed as inconclusive are left out. The source made the active and inactive calls. Calls come from the whole dose curve; as a rule, active = well fitted cell-killing curve with a large enough effect; inconclusive = small, poorly fitted or top-dose-only effect; inactive = flat fitted curve, though single readings scatter.
outcome measure: Potency

1. CCCC(=O)Nc1ccc(OCC(O)CNC(C)C)c(C(C)=O)c1 (centres undefined): inactive
2. CN(C)C(=S)SC(=S)N(C)C: 3.74 µM (active)
3. CC1(C)O[C@@H]2C[C@H]3[C@@H]4CCC5=CC(=O)CC[C@]5(C)[C@@]4(F)[C@@H](O)C[C@]3(C)[C@]2(C(=O)CCl)O1: inactive
4. c1ccc(-c2ccc(C(c3ccccc3)n3ccnc3)cc2)cc1 (centres undefined): inactive

----------
Experiment: Primary qHTS for inhibitors of nuclear receptor binding SET domain protein 2 (NSD2) in an RCH-ACV wild type WT cells (2C) (AID 1645877); note: nearly all actives have a fitted effect of over 70% in size; note: potency is the fitted concentration of half-maximal effect
Conditions: RCH-ACV (leukaemia line) NSD2 WT (2C) viability, CellTiter-Glo, 72 h; series mostly up to 44.9 µM
Results filed as inconclusive are left out. The source made the active and inactive calls. The call rests on the fitted dose curve; in most records, active means well fitted inhibition curve with a large enough effect; inconclusive means small, poorly fitted or top-dose-only effect; inactive means no such curve, though single readings can be large or run the other way.
outcome measure: Potency

1. CCCCC1=NC2(CCCC2)C(=O)N1Cc1ccc(-c2ccccc2-c2nn[nH]n2)cc1: inactive
2. Oc1c(I)cc(I)c2cccnc12: 2.11 µM (active)
3. CCOc1ccc2nc3cc(N)ccc3c(N)c2c1: 5.31 µM (active)
4. CC(=O)OCC(=O)[C@@]1(OC(C)=O)[C@@H](C)C[C@H]2[C@@H]3C[C@H](F)C4=CC(=O)C=C[C@]4(C)[C@@]3(F)[C@@H](O)C[C@@]21C: 0.0188 µM (active)
5. CCCCCC=CCC=CCCCCCCCC(=O)OCC: 18.8 µM (active)

Would you be so kind as to report Potency for each listed record?
1. OC[C@H]1O[C@H](O[C@]2(CCl)O[C@H](CCl)[C@@H](O)[C@@H]2O)[C@H](O)[C@@H](O)[C@H]1Cl
2. CC(C)(C)NC(=O)[C@@H]1CN(Cc2cccnc2)CCN1C[C@@H](O)C[C@@H](Cc1ccccc1)C(=O)N[C@H]1c2ccccc2C[C@H]1O

inactive
inactive

Would you be so kind as to report Potency for each listed record?
1. NCCC(O)(P(=O)(O)O)P(=O)(O)O
2. CC(=O)Oc1ccc(C(=C2CCCCC2)c2ccc(OC(C)=O)cc2)cc1

inactive
inactive

----------
Assay: Cell Viability - LYMP2-016 (AID 984);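 note: cells exposed to compound for 24 hours at 37 °C; nearly all actives have a fitted effect of over 55% in size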
Conditions: LYMP2-016 lymphoblastoid cell viability, qHTS; series mostly up to 92.2 µM
Records with an inconclusive call do not appear. Active and inactive are the calls of the source. The call rests on the fitted dose curve; in most records, active means well fitted cell-killing curve with a large enough effect; inconclusive means small, poorly fitted or top-dose-only effect; inactive means flat fitted curve, though single readings scatter.
Please answer using one outcome listed in label 1 for active, label 0 for inactive

How was Oc1c(Cl)cc(Cl)cc1Sc1cc(Cl)cc(Cl)c1O classified in this test?
label 1

How was CN(C)/N=N/c1nc[nH]c1C(N)=O classified in this test?
label 0

----------
Tested on: Tov-21-G
Experiment: Primary qHTS to identify gynecologic anti-cancer compounds using libraries of approved drugs and bioactive compounds (AID 1345084); note: nearly all actives have a fitted effect of over 55% in size
Settings: Gynecologic cancer cell panel viability, ATPlite luminescence, 48 h; series mostly up to 57.5 µM
Results filed as inconclusive are left out. Calls of active or inactive are those of the source. Calls come from the whole dose curve; as a rule, active = well fitted cell-killing curve with a large enough effect; inconclusive = small, poorly fitted or top-dose-only effect, or effect the other way; inactive = flat fitted curve, though single readings scatter.
Please answer using one outcome listed in active, inactive

As a guide, the following entries are already answered.
1. CCCCC1=NC2(CCCC2)C(=O)N1Cc1ccc(-c2ccccc2-c2nn[nH]n2)cc1: inactive
2. NC(CO)(CO)CO: inactive

How was CCCCCCc1ccc(O)cc1O classified in this test?
inactive

How was COc1cc2c(cc1OC)C(C(C(=O)N(CCc1ccc(OC)c(OC)c1OC)CCc1ccc(OC)c(OC)c1OC)c1ccccc1)=NCC2 (stereo not given) classified in this test?
inactive

How was CCC(C(=O)OCCN(CC)CC)c1ccccc1 (stereo not given) classified in this test?
inactive

How was Cc1ccnc(NS(=O)(=O)c2ccc(N)cc2)n1 classified in this test?
inactive

How was NC(=O)c1cc[n+](CC2=C(C(=O)[O-])N3C(=O)[C@@H](NC(=O)Cc4cccs4)[C@H]3SC2)cc1 classified in this test?
inactive

How was COc1cc(/C=C/C(=O)O[C@H]2CC[C@]34C[C@]35CC[C@]3(C)[C@@H]([C@H](C)CCC=C(C)C)CC[C@@]3(C)[C@@H]5CC[C@H]4C2(C)C)ccc1O classified in this test?
inactive

How was COc1cc(-c2ccc(=O)[nH]n2)ccc1OC(F)F classified in this test?
inactive

How was CCCCOc1ccc(OCCCN2CCOCC2)cc1 classified in this test?
inactive

How was CCOC(=O)/C=C(C)/C=C/C=C(C)/C=C/c1c(C)cc(OC)c(C)c1C classified in this test?
inactive

How was CNC(=O)CN(CCN(CCN(CC(=O)[O-])CC(=O)NC)CC(=O)[O-])CC(=O)[O-].O.[Gd+3] classified in this test?
inactive

How was CCCCCCC[N+](CC)(CC)CCCCc1ccc(Cl)cc1 classified in this test?
active

How was Cc1c(C(C)C)c(=O)n(-c2ccccc2)n1C classified in this test?
inactive

----------
Test system: 3D7
Test: qHTS profiling for inhibitors of Plasmodium falciparum proliferation (AID 504749); note: nearly all actives have a fitted effect of over 60% in size
Settings: P. falciparum in erythrocytes, SYBR Green DNA, 72 h; series mostly up to 28.7 µM
Results filed as inconclusive are left out. The source made the active and inactive calls. Calls follow the shape of the dose curve; as a rule, active = well fitted inhibition curve with a large enough effect; inconclusive = small, poorly fitted or top-dose-only effect; inactive = flat fitted curve, though single readings scatter.
Please answer using one outcome listed in TRUE (active), FALSE (inactive)

1) CN1C2CCC1CC(OC(=O)c1c[nH]c3ccccc13)C2 (stereo unspecified): FALSE
2) Oc1c(I)cc(Cl)c2cccnc12: FALSE
3) O=c1c(-c2ccccc2)c1-c1ccccc1: TRUE
4) Oc1ccc(O)cc1: TRUE
5) c1ccc(CNCCNCc2ccccc2)cc1: FALSE

How was CN1C(CCl)Nc2cc(Cl)c(S(N)(=O)=O)cc2S1(=O)=O (stereo unspecified) classified in this test?
FALSE

How was CCN1CCCC1=O classified in this test?
FALSE
